- measurement_target: HLA-A*24 (human)
- experiment_summary: UV-exchange ELISA, exchange yield grade
outcome_measure: peptide exchange yield

- KYVGQLAVL [… (SEQ ID NO: 237)]: 50 to 75%
- PYLVVIHTL [… (SEQ ID NO: 108)]: 50 to 75%
- SYGTILSHI [… (SEQ ID NO: 286)]: > 75%
- LYSVIKEDF [… (SEQ ID NO: 303)]: 50 to 75%
- RYFKGDYSI [… (SEQ ID NO: 314)]: 50 to 75%
- AYAQLGYLLF [… (SEQ ID NO: 182)]: > 75%
- IFITKALQI [… (SEQ ID NO: 268)]: 20 to 49%
- PYLQDVPRI [… (SEQ ID NO: 183)]: 50 to 75%
- IYLSDLTYI [… (SEQ ID NO: 117)]: 50 to 75%
- KYLSVQLTL [… (SEQ ID NO: 246)]: 20 to 49%
- GYNPNRVFF [… (SEQ ID NO: 201)]: 50 to 75%
- SYAELGTTI [… (SEQ ID NO: 363)]: 20 to 49%
- KYYRQTLLF [… (SEQ ID NO: 309)]: 20 to 49%
- LYQDHMQYI [… (SEQ ID NO: 367)]: 20 to 49%
- SYLELANTL [… (SEQ ID NO: 243)]: 50 to 75%
- KYQNVKHNL [… (SEQ ID NO: 368)]: 50 to 75%
- VYIESRIGTSTSF [… (SEQ ID NO: 100)]: 50 to 75%
- DYVGFTLKI [… (SEQ ID NO: 198)]: 20 to 49%
- SYLVIHERI [… (SEQ ID NO: 295)]: 50 to 75%
- KYLNSVQYI [… (SEQ ID NO: 118)]: 50 to 75%
- SYPKIIEEF [… (SEQ ID NO: 110)]: 50 to 75%
- TYKDYVDLF [… (SEQ ID NO: 124)]: < 20%
- VYKDSIYYI [… (SEQ ID NO: 235)]: 50 to 75%
- LYLPVHYGF [… (SEQ ID NO: 302)]: 50 to 75%
- TFITQSPLL [… (SEQ ID NO: 223)]: > 75%
- AYSHLRYVF [… (SEQ ID NO: 371)]: 20 to 49%
- GYAFTLPLF [… (SEQ ID NO: 307)]: 50 to 75%
- SYLPAIWLL [… (SEQ ID NO: 234)]: 50 to 75%
- RYGDGGSSF [… (SEQ ID NO: 160)]: 50 to 75%
- KFFDDLGDELLF [… (SEQ ID NO: 152)]: 20 to 49%
- VYEKNGYIYF [… (SEQ ID NO: 174)]: 50 to 75%
- KYGDFKLLEF [… (SEQ ID NO: 290)]: > 75%
